System: Mus musculus
protocol-summary: Tested for oral activity against Staphylococcus aureus smith infection in mice after single oral dose(SOD)
Type: functional
cond: Mus musculus, po; read-out: ED50
Parameter: ED50. Scope: all listed entries.
Enter your answer as a number in mg/kg; do not include the unit.

C[C@H]1C(SC2COC(CN)C2)=C(C(=O)O)N2C(=O)[C@H]([C@@H](C)O)C12 (stereo in doubt; trans) : 1.7
C[C@H](N)C(=O)NC[C@H]1OCC[C@H]1SC1=C(C(=O)O)N2C(=O)[C@H]([C@@H](C)O)C2[C@H]1C (some centres not stated) : 6.6
CC[C@@H](C)[C@@H](N)C(=O)NC[C@H]1OCC[C@H]1SC1=C(C(=O)O)N2C(=O)[C@H]([C@@H](C)O)C2[C@H]1C (some centres not stated) : 0.21
C[C@@H](N)C(=O)NC[C@@H]1COC[C@@H]1SC1=C(C(=O)O)N2C(=O)[C@H]([C@@H](C)O)C2[C@H]1C (some centres not stated) : 4.5
C[C@H]1C(S[C@@H]2CCO[C@@H]2CNC(=O)[C@H](N)Cc2ccccc2)=C(C(=O)O)N2C(=O)[C@H]([C@@H](C)O)C12 (some centres not stated) : 0.28
CC(C)[C@@H](N)C(=O)NC[C@H]1OCC[C@H]1SC1=C(C(=O)O)N2C(=O)[C@H]([C@@H](C)O)C2[C@H]1C (some centres not stated) : 0.1

// returns reported ED50 for input C[C@@H](O)[C@H]1C(=O)N2C(C(=O)O)=C(S[C@@H]3CCO[C@@H]3CN)[C@H](C)[C@H]12
0.88

---

Species on record: Mus musculus
protocol-summary: animal or person
Type: functional
cond: Mus musculus, po; read-out: ED50
Description: Tested for oral activity against Escherichia coli #311 infection in mice after single oral dose(SOD)
Criterion: ED50 strictly less than 1 mg/kg. Met: Met. Not met: Not met.

// known answers, use as guide
C[C@@H](O)[C@H]1C(=O)N2C(C(=O)O)=C(S[C@@H]3CCO[C@@H]3CN)[C@H](C)[C@H]12 : Not met
C[C@H]1C(S[C@@H]2CCO[C@@H]2CNC(=O)CN)=C(C(=O)O)N2C(=O)[C@H]([C@@H](C)O)C12 (stereo partly drawn) : Not met
C[C@@H](N)C(=O)NC[C@H]1OCC[C@H]1SC1=C(C(=O)O)N2C(=O)[C@H]([C@@H](C)O)C2[C@H]1C (stereo partly drawn) : Met
C[C@H]1C(S[C@@H]2CCO[C@@H]2CNC(=O)[C@@H](N)Cc2ccccc2)=C(C(=O)O)N2C(=O)[C@H]([C@@H](C)O)C12 (stereo partly drawn) : Not met
CC(C)[C@@H](N)C(=O)NC[C@H]1OCC[C@H]1SC1=C(C(=O)O)N2C(=O)[C@H]([C@@H](C)O)C2[C@H]1C (stereo partly drawn) : Met
C[C@H]1C(S[C@@H]2CCO[C@@H]2CNC(=O)[C@H](N)Cc2ccccc2)=C(C(=O)O)N2C(=O)[C@H]([C@@H](C)O)C12 (stereo partly drawn) : Not met
C[C@H]1C(SC2COC(CN)C2)=C(C(=O)O)N2C(=O)[C@H]([C@@H](C)O)C12 (stereo in doubt; trans) : Not met

Is the reported ED50 for CC[C@@H](C)[C@@H](N)C(=O)NC[C@H]1OCC[C@H]1SC1=C(C(=O)O)N2C(=O)[C@H]([C@@H](C)O)C2[C@H]1C (stereo partly drawn) strictly below 1 mg/kg?
Met
